# System: RccR (PA5438) (Pseudomonas aeruginosa, UniProt Q9HTC8, S188A)
# Sequence (Q9HTC8 whole entry S188A): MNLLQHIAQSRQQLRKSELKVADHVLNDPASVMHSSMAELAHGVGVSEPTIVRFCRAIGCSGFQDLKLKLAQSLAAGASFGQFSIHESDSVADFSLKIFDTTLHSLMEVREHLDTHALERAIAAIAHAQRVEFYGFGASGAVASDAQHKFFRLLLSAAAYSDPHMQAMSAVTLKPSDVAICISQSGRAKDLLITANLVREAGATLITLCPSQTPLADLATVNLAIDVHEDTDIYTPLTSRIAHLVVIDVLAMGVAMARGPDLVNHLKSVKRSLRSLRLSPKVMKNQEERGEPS
# Assay summary: biochemical
Metric: pKd
Remember the convention: pKd equals -log10 of concentration in molar.

Ask: Look up pKd for this molecule: O=C(O)C(=O)C[C@H](O)[C@H](O)COP(=O)(O)O
Reply: 4.80

---

# System: RccR (PA5438) (Pseudomonas aeruginosa, UniProt Q9HTC8, S185A)
# Sequence (Q9HTC8 whole entry S185A): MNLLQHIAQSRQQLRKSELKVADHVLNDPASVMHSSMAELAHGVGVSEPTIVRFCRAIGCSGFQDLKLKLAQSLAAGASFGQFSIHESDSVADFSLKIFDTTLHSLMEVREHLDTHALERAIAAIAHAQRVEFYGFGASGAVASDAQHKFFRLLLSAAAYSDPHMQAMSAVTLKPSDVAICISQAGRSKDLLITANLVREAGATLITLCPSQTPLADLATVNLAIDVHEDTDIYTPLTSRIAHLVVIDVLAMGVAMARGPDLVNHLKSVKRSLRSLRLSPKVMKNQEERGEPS
# Assay summary: biochemical
Metric: pKd
pKd is defined as minus the log10 of a concentration measured in mol/L.

Ask: I'd like to know its pKd. The compound in question is O=C(O)C(=O)C[C@H](O)[C@H](O)COP(=O)(O)O [KDPG]
Reply: 4.68

---

# System: RccR (PA5438) (Pseudomonas aeruginosa, UniProt Q9HTC8)
# Construct: tetramer in crystal
# Sequence (Q9HTC8 entry or part of it): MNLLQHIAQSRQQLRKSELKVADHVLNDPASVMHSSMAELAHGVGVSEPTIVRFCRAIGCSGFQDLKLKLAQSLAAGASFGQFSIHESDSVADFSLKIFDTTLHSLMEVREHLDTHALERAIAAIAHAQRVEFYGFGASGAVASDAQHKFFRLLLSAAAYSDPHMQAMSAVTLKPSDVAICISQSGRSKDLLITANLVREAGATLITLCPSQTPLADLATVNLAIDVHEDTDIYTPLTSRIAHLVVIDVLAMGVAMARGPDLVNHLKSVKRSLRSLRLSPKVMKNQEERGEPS
# Assay summary: isothermal titration calorimetry
# Assay type: binding
Metric: pKd
Formally, pKd is defined as -log10 of the concentration c, with c in mol/L.

Ask: Please give the measured pKd for this compound: O=C(O)C(=O)C[C@H](O)[C@H](O)COP(=O)(O)O
Reply: 5.48

---

# System: RccR (PA5438) (Pseudomonas aeruginosa, UniProt Q9HTC8, S183A)
# Sequence (Q9HTC8 whole entry S183A): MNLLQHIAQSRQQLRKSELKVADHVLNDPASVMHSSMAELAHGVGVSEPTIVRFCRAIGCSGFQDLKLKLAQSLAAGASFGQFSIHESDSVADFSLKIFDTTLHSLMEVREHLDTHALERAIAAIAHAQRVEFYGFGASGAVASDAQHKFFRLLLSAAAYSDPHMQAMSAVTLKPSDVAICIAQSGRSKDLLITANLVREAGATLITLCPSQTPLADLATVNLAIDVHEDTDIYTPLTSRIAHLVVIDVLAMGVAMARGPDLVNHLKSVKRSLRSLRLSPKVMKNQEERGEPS
# Assay summary: biochemical
Metric: Kd

Ask: Form field: reported Kd of O=C(O)C(=O)C[C@H](O)[C@H](O)COP(=O)(O)O
Reply: 28.7 µM
